- studySystem: Alpha-bungarotoxin (Bungarus multicinctus)
- assayDetails: compounds binding labelled alpha-BTX control protein – biochemical, small-molecule microarray, Alexa647 label, 635/667 nm fluorescence, artefact control for SMM control protein annotation, profiling panel (AID 1117)
- conditionInfo: alpha-BTX-A647 binding fluorescence, higher = more signal
# composite z-score annotations
reportedProperty: composite z-score

>>> endpointvalue("CC(C)(C)OC(=O)CC[C@@]1(C(=O)N2CCOCC2)N=C(c2ccc(OCCCO)cc2)O[C@@H]1c1ccccc1N=[N+]=[N-]")
2.41
>>> endpointvalue("CN1C(=O)C2C=CC(C(O)C3=C[C@H]4C[C@@H](C3)C4(C)C)N(Nc3ccc([N+](=O)[O-])cc3[N+](=O)[O-])C2C1=O (some centres undefined)")
1.51
>>> endpointvalue("Cc1ccc(N2C(=O)c3ccccc3[C@@H](C(=O)NC(C)C)[C@@H]2c2ccc(CO)cc2)nc1")
-0.719
>>> endpointvalue("COCC1=C([C@H](O)CCc2ccccc2)[C@H](CO)[C@@H]2C(=O)N(Cc3ccccc3)C(=O)[C@@H]2C1")
0.206
>>> endpointvalue("COc1ccc([Si](C)(C)[C@H]2[C@H](CCO)O[C@@]3(C(=O)N(Cc4ccccc4)c4ccc(N5C(=O)COc6ccccc65)cc43)[C@@H]2C)cc1")
0.662
>>> endpointvalue("C=CCCN(CC#C[C@H]1Oc2ccccc2S(=O)(=O)N2CCC[C@@H]12)S(=O)(=O)c1ccc(C)cc1")
-0.189
>>> endpointvalue("NC(=O)NCC#Cc1ccc2c(c1)[C@]1(C(=O)N2)[C@H](c2ccc(O)cc2)N2[C@H](c3ccccc3)[C@H](c3ccccc3)OC(=O)[C@H]2[C@@H]1C(=O)N1CCN(c2ncccn2)CC1")
0.772
>>> endpointvalue("CC(C)[Si]1(C(C)C)O[C@@H](c2ccccc2)c2cc(-c3ccc(-c4ccc(Cl)c(Cl)c4)o3)nc(CCc3ccccc3)c21")
-1.17
>>> endpointvalue("O=C(NCC(O)CO)[C@@]1(Cc2ccccc2)N=C(c2ccc(OCCCO)cc2)O[C@H]1c1ccccc1 (some centres undefined)")
1.77
>>> endpointvalue("Cc1ccc(C(C)CC(O)C2C=CC3C(=O)NC(=O)C3N2Nc2ccccn2)o1 (centres undefined)")
-0.0054
>>> endpointvalue("O=C(CS)NCCCCCNC(=O)[C@H]1C[C@H]2C(=O)N[C@@H](Cc3ccccc3)C(=O)N2[C@H]1c1cccc(OCCO)c1")
0.656
>>> endpointvalue("C[N+](C)(C)CCCCNC(=O)[C@H]1C[C@H]2C(=O)N3CCC[C@H]3C(=O)N2[C@H]1c1ccc(O)cc1")
1.57
>>> endpointvalue("CO[C@H]1O[C@H](CO)[C@@H](OC(=O)Nc2ccccc2-c2ccccc2)[C@H](OC(=O)Nc2ccccc2-c2ccccc2)[C@H]1OC(=O)Nc1ccccc1-c1ccccc1")
1.73
>>> endpointvalue("COC(=O)[C@@]1(Cc2ccc(F)cc2)[C@H]2c3cc(C(=O)N4CCCC4)n(Cc4ccc(Cl)c(C(F)(F)F)c4)c3C[C@H]2CN1C(=O)c1ccccc1")
1.57

* * *

- Tested on: Fibrinogen (Alexa647-labelled)
- assayDetails: Alexa647-fibrinogen binding to printed small molecules – biochemical, small-molecule microarray, 635/667 nm fluorescence, artefact control for SMM control-protein annotation, profiling panel (AID 1131);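 also: z-score merges 667 nm fluorescence with per-spot signal-to-noise over triplicate slides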
- conditionInfo: fibrinogen-A647 binding fluorescence, higher = more signal
Assign MET whenever composite z-score does not fall below 0.8; assign NOT MET whenever it does.

>>> category("COC(=O)[C@@]1(Cc2ccc(F)cc2)[C@H]2c3cc(C(=O)N(C)C)n(CCCNc4ccc(C(F)(F)F)cc4Cl)c3C[C@H]2CN1C(=O)c1ccccc1")
"MET"
>>> category("COC(=O)[C@@]1(Cc2ccccc2)[C@H]2c3cc(C(=O)N(C)C)n(Cc4ccccc4)c3C[C@H]2CN1C(=O)c1ccccc1")
"MET"
>>> category("CCOC(=O)C1=CC[C@@H](c2cccc(Cl)c2)N(S(=O)(=O)c2ccc(C)cc2)[C@H]1c1ccc(C#N)cc1")
"NOT MET"
>>> category("COCCOC(=O)N1C(=O)[C@@]2(c3cc(C#Cc4ccc(OC)cc4)ccc31)[C@H](c1ccc(O)cc1)N1[C@H](c3ccccc3)[C@H](c3ccccc3)OC(=O)[C@H]1[C@@H]2C(=O)N1CCN(c2ncccn2)CC1")
"NOT MET"
>>> category("O=C1NC(=O)C2C1C=CC(C(O)c1cccs1)N2Nc1ccccn1 (stereo unspecified)")
"NOT MET"

* * *

# composite z-score annotations
- assayDetails: probe aEGFR binding to arrayed compounds – biochemical, biotinylated probe, 635/667 nm fluorescence, primary screen (AID 1097);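 also: probe is a biotinylated anti-EGFR antibody binding compounds printed on slides; score combines fluorescence near 667 nm and signal to noise of each spot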
- conditionInfo: small-molecule microarray, higher = more signal
reportedProperty: composite z-score

>>> endpointvalue("O=c1cccc(-c2cccc3ccccc23)o1")
-0.2
>>> endpointvalue("O=C(NCC(O)CO)[C@@]1(Cc2ccccc2)N=C(c2ccc(OCCCO)cc2)O[C@H]1c1ccccc1 (stereo partly drawn)")
0.298
>>> endpointvalue("[N-]=[N+]=NCc1ccccc1C[C@]1(C(=O)N2CCOCC2)N=C(c2ccc(OCCCO)cc2)O[C@H]1c1ccccc1")
-0.0509

* * *

# composite z-score annotations
- studySystem: Torsin-1A (Homo sapiens)
- assayDetails: TOR1A wild-type binding on microarray – cell lysate, small-molecule microarray, lysate, 635/667 nm, primary screen (AID 1149)
- conditionInfo: COS7 hTOR1A-WT lysate, 635 nm fluorescence, higher = more signal
reportedProperty: composite z-score

>>> endpointvalue("O=C1O[C@@H](c2ccccc2)[C@@H](c2ccccc2)N2[C@@H](c3ccc(O)cc3)[C@]3(C(=O)Nc4ccc(C#CCCO)cc43)[C@@H](C(=O)O)[C@H]12")
0.0458
>>> endpointvalue("C=CCOC(=O)[C@@H]1[C@H]2C(=O)O[C@H](c3ccccc3)[C@H](c3ccccc3)N2[C@H](c2ccc(OCCOC(=O)[C@H]3C[C@H]4C(=O)N[C@@H](CC(C)C)C(=O)N4[C@H]3c3cccc(OCCO)c3)cc2)[C@@]12C(=O)Nc1ccc(I)cc12")
1
>>> endpointvalue("CO[C@H]1O[C@H](CO)[C@@H](OC(=O)Nc2ccc(C(F)(F)F)cc2)[C@H](OC(=O)Nc2ccccc2)[C@@H]1OC(=O)Nc1ccccc1")
0.146

* * *

- assayDetails: S6 kinase pathway phospho-S6 level changes – cell-based, A549, cytoblot, luminescence, serum-stimulated, primary screen (AID 1158);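 also: serum-stimulated A549 lung adenocarcinoma cells; signal is phosphorylated S6 detected by cytoblot immunostaining with HRP secondary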
- conditionInfo: 5 h, higher = more signal
# z-score annotations
reportedProperty: z-score

>>> endpointvalue("COc1ccc([Si](C)(C)[C@@H]2[C@@H](CC(=O)N3Cc4ccccc4C[C@H]3CO)O[C@]3(C(=O)N(Cc4cccc(N5C(=O)COc6ccccc65)c4)c4ccccc43)[C@H]2C)cc1")
4.59
>>> endpointvalue("COc1ccc([Si](C)(C)[C@H]2[C@H](CC(=O)N3CCC[C@H]3CO)O[C@@]3(C(=O)N(Cc4cccc(N5CCC5=O)c4)c4ccccc43)[C@@H]2C)cc1")
0.249
>>> endpointvalue("C=CCC(OC(C)=O)[C@@H]1[C@@H](N(Cc2ccc(-c3ccccc3)cc2)C(=O)c2ccc(C)cc2)c2cc(OCCCO)ccc2N1C(=O)c1ccc2ccccc2n1 (stereo partly drawn)")
1.56
>>> endpointvalue("C[C@H]1C2[C@H](Cc3ccccc3)NC(=O)[C@]23C(=O)N[C@H](Cc2ccccc2)C(=O)N[C@H](Cc2ccccc2)C(=O)NC/C=C/CCC/C=C/C3[C@@H]2O[C@]12C (stereo partly drawn)")
0.282
>>> endpointvalue("Cc1ccc(S[C@]2(C(=O)NCCN3CCOCC3)CC(=O)N(C3CCCCC3)[C@@H]2c2ccc(CO)cc2)cc1")
-0.667
>>> endpointvalue("O=C1C2C=CC(C(O)c3ccc(-c4ccccc4)s3)N(Nc3ccccc3F)C2C(=O)N1c1ccccc1 (stereo not drawn)")
-0.501
>>> endpointvalue("C=CCNC(=O)[C@H]1[C@@H]2C(=O)O[C@@H](c3ccccc3)[C@@H](c3ccccc3)N2[C@@H](c2ccc(OCCO)cc2)[C@]12C(=O)N(C(=O)OCCOC)c1ccc(C#CC3(O)CCCCCC3)cc12")
0.0127
>>> endpointvalue("COC(=O)[C@@]1(Cc2ccc(OC)cc2)[C@H]2c3cc(C(=O)N4CCCC4)n(CCc4ccccn4)c3C[C@H]2CN1C(=O)c1ccccc1")
0.958
>>> endpointvalue("COC(=O)c1c(CC[C@@H](CO)NC(=O)Nc2ncn[nH]2)oc(C(=O)Cc2ccccc2)c1C(=O)OC")
0.0642
>>> endpointvalue("CO[C@H]1O[C@H](CO)[C@@H](OC(=O)Nc2ccccc2-c2ccccc2)[C@H](OC(=O)Nc2ccccc2-c2ccccc2)[C@H]1OC(=O)Nc1ccccc1-c1ccccc1")
0.311
>>> endpointvalue("COc1ccc(CCNC(=O)[C@@]2(C)c3ccccc3C(=O)N(Cc3ccccc3)[C@H]2c2ccc(CO)cc2)cc1")
2.24
>>> endpointvalue("CC(C)[Si]1(C(C)C)O[C@@H](c2ccccc2)c2cc(-c3ccc(-c4ccc(Cl)c(Cl)c4)o3)nc(CCc3ccccc3)c21")
-0.507
>>> endpointvalue("CN(C)CCCC[C@@H]1NC(=O)[C@@H]2C[C@H](C(=O)NCCCCCCN)[C@H](c3ccc(O)cc3)N2C1=O")
-0.648
>>> endpointvalue("COc1ccc(C#Cc2ccc3c(c2)[C@]2(C(=O)N3)[C@H](C(=O)N3CCc4cc(OC)c(OC)cc4C3)[C@H]3C(=O)O[C@H](c4ccccc4)[C@H](c4ccccc4)N3[C@@H]2c2ccc(OCCO)cc2)cc1")
0.0867
>>> endpointvalue("COc1ccc([Si](C)(C)[C@@H]2[C@@H](CCO)O[C@]3(C(=O)N(Cc4ccc(N5C(=O)c6cccc7cccc5c67)cc4)c4ccccc43)[C@H]2C)cc1")
-0.511
>>> endpointvalue("CN1C(=O)C2C=CC(C(O)C=Cc3ccc([N+](=O)[O-])cc3)N(N3CCCCC3)C2C1=O (stereo not drawn)")
-0.9
>>> endpointvalue("COCCn1c(C(=O)N(C)C)cc2c1C[C@H]1CN(C(=O)c3ccccc3)[C@@](Cc3ccc(F)cc3)(C(=O)OC)[C@@H]21")
-0.17
>>> endpointvalue("Cc1ccc(S[C@]2(C(=O)NCC(F)(F)F)CC(=O)N(C3Cc4ccccc4C3)[C@@H]2c2ccc(CO)cc2I)cc1")
-0.204
>>> endpointvalue("CC(C)C[C@@H]1NC(=O)[C@@H]2C[C@H](C(=O)NCCCCN(C)C)[C@H](c3ccc(O)cc3)N2C1=O")
0.0488
>>> endpointvalue("O[C@@H](Cc1ccccc1)[C@@H](/C=C/c1ccccc1)NCc1ccccc1Br")
0.747
>>> endpointvalue("C=CCN1C(=O)[C@@]2(O[C@@H](CCO)[C@H]([Si](C)(C)c3ccc(OC)cc3)[C@H]2C)c2cc(N3C(=O)COc4ccccc43)ccc21")
0.175
>>> endpointvalue("CO[C@H]1O[C@H](CO)[C@@H](OC(=O)Nc2ccc3c(c2)OCO3)[C@H](OC(=O)Nc2ccc3c(c2)OCO3)[C@H]1OC(=O)Nc1ccc2c(c1)OCO2")
-0.489
>>> endpointvalue("C#C[C@H]1Oc2ccccc2S(=O)(=O)N2CCC[C@@H]12")
0.213
>>> endpointvalue("C=CC[C@]1(C(=O)O)N=C(c2ccc(OCCCO)cc2)O[C@H]1c1ccccc1CN=[N+]=[N-]")
-0.0651
>>> endpointvalue("CN1C(=O)C2C=CC(C(O)C(C)(C)C)N(Nc3ccccc3)C2C1=O (stereo not drawn)")
-1.04
>>> endpointvalue("Cc1cc(C)c(C(O)C2C=CC3C(=O)NC(=O)C3N2Nc2ccccn2)c(C)c1 (stereo not drawn)")
-1.25
>>> endpointvalue("O=C(NCc1ccccc1)[C@@H]1c2ccccc2C(=O)N(Cc2cc(F)cc(C(F)(F)F)c2)[C@H]1c1ccc(CO)cc1")
-0.26
>>> endpointvalue("CC[C@@H]1C=C(C(=O)O)[C@H](c2ccc(C(C)C)cc2)N1S(=O)(=O)c1ccc(C)cc1")
-0.334
